Just for reference, paper PMC8820617 is where these values come from.

Target: CYP2C9 supersomes (Homo sapiens)
Sequence (P11712 whole entry): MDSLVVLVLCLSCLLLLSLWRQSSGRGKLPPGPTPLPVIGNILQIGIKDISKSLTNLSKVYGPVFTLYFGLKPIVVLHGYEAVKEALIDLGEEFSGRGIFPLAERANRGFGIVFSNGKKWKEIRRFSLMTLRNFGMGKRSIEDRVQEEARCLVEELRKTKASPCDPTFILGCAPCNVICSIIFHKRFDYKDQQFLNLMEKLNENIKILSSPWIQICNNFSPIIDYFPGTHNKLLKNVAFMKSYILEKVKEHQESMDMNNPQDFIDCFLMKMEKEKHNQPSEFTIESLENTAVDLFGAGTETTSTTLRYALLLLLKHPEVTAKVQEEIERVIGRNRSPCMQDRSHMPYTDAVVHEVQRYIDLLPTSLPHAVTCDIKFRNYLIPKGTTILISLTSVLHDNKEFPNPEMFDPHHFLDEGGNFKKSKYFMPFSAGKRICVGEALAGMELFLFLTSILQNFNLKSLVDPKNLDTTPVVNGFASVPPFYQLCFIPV
Assay: Inhibition of CYP2C9 on recombinant supersomes (diclofenac 4-hydroxylation, LC/MS-MS)
Details: IC50 values determined with CYP2C9 supersomes, substrate diclofenac 5 μM; recombinant supersomes
pIC50: −log10 of the molar value.
observable: pIC50

>>> measured_result("Clc1ccc(Nc2nnc(Cc3ccncc3)c3ccccc23)cc1")
"> 4.74"
>>> measured_result("O=C(O[C@H]1CN2CCC1CC2)N(Cc1cc(F)c(F)c(F)c1)c1cccc(F)c1")
"< 4.00"
>>> measured_result("CCN1CCN(Cc2ccc(Nc3ncc(F)c(-c4cc(F)c5nc(C)n(C(C)C)c5c4)n3)nc2)CC1")
"< 4.00"

---

Molecular target: CYP2C9 (Homo sapiens, UniProt P11712)
Sequence (P11712 whole entry): as above
Test: Inhibition of CYP2C9 activity in HepG2 cells expressing CYP2C9 (P450-Glo CYP2C9 assay with Luciferin-H)
Conditions: HepG2 cells expressing CYP2C9; five-step dilution series 0.5 to 50 μM
observable: Dose-dependent inhibition (yes/no)

>>> measured_result("CC(=O)N1CCN(CCOc2ccc(C3CCN(C4=Nn5c(nnc5C(F)(F)F)CC4)CC3)cc2)CC1")
"no"
>>> measured_result("CCCSc1nc(N[C@@H]2C[C@H]2c2ccc(F)c(F)c2)c2nnn([C@@H]3C[C@H](OCCO)[C@@H](O)[C@H]3O)c2n1")
"yes"
>>> measured_result("CN(c1ncccc1CNc1nc(Nc2ccc3c(c2)CC(=O)N3)ncc1C(F)(F)F)S(C)(=O)=O")
"no"
>>> measured_result("C[C@H](Nc1ncnc2[nH]cnc12)c1cc2cccc(Cl)c2c(=O)n1-c1ccccc1")
"yes"
